tested on: SOX2; assay: Screen of a library of FDA-approved drugs for SOX2 antibody staining in A375 cells treated with PLX4720 and AZD6244; conditions: A375 cells, 5 uM test drug with 1 uM PLX4720 and 0.5 uM AZD6244, 24 h; normalized and geometry-corrected (loess) signal
Where a name gives a salt, the structure may show the parent alone.
observed.property: cor. loess

// fetch cor. loess given entry [H]/N=C(/NCCCCC)N/N=C/c1c[nH]c2ccc(OC)cc12 [TEGASEROD MALEATE] 0.2864

// fetch cor. loess given entry CC[C@@H](C(=O)[C@@H](C)[C@@H](O)[C@H](C)[C@@H]1O[C@@H]([C@@H](CC)C(=O)O)CC[C@@H]1C)[C@H]1O[C@]2(C=C[C@@H](O)[C@]3(CC[C@@](C)([C@H]4CC[C@](O)(CC)[C@H](C)O4)O3)O2)[C@H](C)C[C@@H]1C [SALINOMYCIN, SODIUM] 0.802

---
// fetch cor. loess given entry Nc1ccc2cc3ccc(N)cc3nc2c1 [PROFLAVINE HEMISULFATE] 0.3381

====

system: SOX2; test: Screen of a library of FDA-approved drugs for SOX2 antibody staining in A375 cells treated with PLX4720 and AZD6244; conditions: A375 cells, 5 uM test drug with 1 uM PLX4720 and 0.5 uM AZD6244, 24 h; normalized and geometry-corrected (loess) signal
observed.property: cor. loess
Give bare numbers.

Worked cases, cor. loess given:
// fetch cor. loess given entry CCOC(=O)COc1ccc2c(=O)cc(-c3ccccc3)oc2c1 [EFLOXATE] 1.468

// fetch cor. loess given entry Cc1cc(C(C)(C)CC(C)(C)C)ccc1OCCOCC[N+](C)(C)Cc1ccccc1.[Cl-] [METHYLBENZETHONIUM CHLORIDE] 0.2976

Parameters: items (list). Returns: cor. loess for each item.
1. CC(C)(C)c1ccc(C(O)CCCN2CCC(C(O)(c3ccccc3)c3ccccc3)CC2)cc1 (stereo not drawn)
2. CC(=O)OCC(=O)[C@@]1(O)[C@H](OC(C)=O)C[C@H]2[C@@H]3CCC4=CC(=O)C=C[C@]4(C)[C@@]3(F)[C@@H](O)C[C@@]21C [TRIAMCINOLONE DIACETATE]
3. CC(=O)OCC(=O)[C@@]12OC3(CCCC3)O[C@@H]1C[C@H]1[C@@H]3CCC4=CC(=O)C=C[C@]4(C)[C@@]3(F)[C@@H](O)C[C@@]12C [AMCINONIDE]
4. C[C@@H]1C[C@H]2[C@@H]3C[C@H](F)C4=CC(=O)C=C[C@]4(C)[C@@]3(F)[C@@H](O)C[C@]2(C)[C@@]1(O)C(=O)COC(=O)C(C)(C)C [FLUMETHAZONE PIVALATE]

[0.2601, 0.3964, 0.491, 0.4809]

====

system: SOX2; assay: Screen of a library of FDA-approved drugs for SOX2 antibody staining in A375 cells treated with PLX4720 and AZD6244; settings: A375 cells, 5 uM test drug with 1 uM PLX4720 and 0.5 uM AZD6244, 24 h; normalized and geometry-corrected (loess) signal
observed.property: cor. loess
Answers are plain numbers.

// fetch cor. loess given entry C[C@]12C=CC(=O)C=C1CC[C@H]1[C@@H]3C[C@@H](O)[C@](O)(C(=O)CO)[C@@]3(C)C[C@H](O)[C@@]12F [TRIAMCINOLONE] 0.4006

// fetch cor. loess given entry Nc1ccccc1NC(=O)c1ccc(CNC(=O)OCc2cccnc2)cc1 [Entinostat (MS-275), Entinostat] 0.6933

// fetch cor. loess given entry COC(=O)[C@]12CCC(C)(C)C[C@H]1[C@H]1C(=O)C=C3[C@@]4(C)C=C(C#N)C(=O)C(C)(C)[C@@H]4CC[C@@]3(C)[C@]1(C)CC2 [Bardoxolone Methyl] 1.25

Parameters: items (list). Returns: cor. loess for each item.
1. CCCCCCCCCCCCCCCC[N+](C)(C)C.[Br-] [CETRIMONIUM BROMIDE]
2. O=c1[nH]c(=O)n([C@H]2C[C@H](O)[C@@H](CO)O2)cc1C(F)(F)F [TRIFLURIDINE]
3. O=c1[nH]c(=O)n([C@H]2C[C@H](O)[C@@H](CO)O2)cc1F [FLOXURIDINE]
4. CCN(CC)C(=S)SSC(=S)N(CC)CC
5. CCOC(=O)O[C@]1(C(=O)COC(=O)CC)CC[C@H]2[C@@H]3CCC4=CC(=O)C=C[C@]4(C)[C@H]3[C@@H](O)C[C@@]21C [PREDNICARBATE]

1: 5.014; 2: 0.4387; 3: 0.3344; 4: 0.5909; 5: 0.3992

Parameters: items (list). Returns: cor. loess for each item.
1. CN(C)Cc1ccc(S(=O)(=O)n2ccc(/C=C/C(=O)NO)c2)cc1 [Resminostat]
2. CCOc1cc2ncc(C#N)c(Nc3ccc(OCc4ccccn4)c(Cl)c3)c2cc1NC(=O)/C=C/CN(C)C [Neratinib (HKI-272), Neratinib]
3. Cc1cn(-c2cc(NC(=O)c3ccc(C)c(Nc4nccc(-c5cnccn5)n4)c3)cc(C(F)(F)F)c2)cn1 [Radotinib]
4. CC(=O)N[C@@H](CC(C)C)C(=O)O [ACETYL-L-LEUCINE]
5. CC(C)Oc1ccc2c(=O)c(-c3ccccc3)coc2c1 [IPRIFLAVONE]

0.8
4.182
0.7186
0.5782
0.3885

====

system: SOX2; assay: Screen of a library of FDA-approved drugs for SOX2 antibody staining in A375 cells treated with PLX4720 and AZD6244; settings: Z-test against negative controls (DMSO); single dose 5 uM
Structures can show the parent of a compound that is named as a salt.
observed.property: z

Worked cases, z given:
Provide the reported z (system: SOX2) for S=C(NCc1ccc2c(c1)OCO2)N1CCN(c2ncnc3c2oc2ccccc23)CC1 4.05

Provide the reported z (system: SOX2) for CO[C@H]1/C=C/O[C@@]2(C)Oc3c(C)c(O)c4c(O)c(c(/C=N/N5CCN(C)CC5)c(O)c4c3C2=O)NC(=O)/C(C)=C\C=C\[C@H](C)[C@H](O)[C@@H](C)[C@@H](O)[C@@H](C)[C@H](OC(C)=O)[C@@H]1C 3.454

Provide the reported z (system: SOX2) for CC(C)(C)CC(C)(C)c1ccc(OCCOCC[N+](C)(C)Cc2ccccc2)cc1 [BENZETHONIUM CHLORIDE] 7.654

Provide the reported z (system: SOX2) for CCOc1cc2ncc(C#N)c(Nc3ccc(OCc4ccccn4)c(Cl)c3)c2cc1NC(=O)/C=C/CN(C)C 16.11

Provide the reported z (system: SOX2) for O=c1[nH]c(=O)n([C@H]2C[C@H](O)[C@@H](CO)O2)cc1I 6.136

Parameters: items (list). Returns: z for each item.
1. CN1CCN(c2c(F)cc3c(=O)c(C(=O)O)cn4c3c2SCC4)CC1 [RUFLOXACIN HYDROCHLORIDE]
2. C[C@H]1O[C@@H](O[C@H]2[C@@H](O)C[C@H](O[C@H]3[C@@H](O)C[C@H](O[C@H]4CC[C@@]5(C)[C@H](CC[C@@H]6[C@@H]5CC[C@]5(C)[C@@H](C7=CC(=O)OC7)CC[C@]65O)C4)O[C@@H]3C)O[C@@H]2C)C[C@H](O)[C@@H]1O
3. [H]/N=C(/NCCCCC)N/N=C/c1c[nH]c2ccc(OC)cc12 [TEGASEROD MALEATE]
4. CCCCCCCCCCCCCCCC[N+](C)(C)C.[Br-] [CETRIMONIUM BROMIDE]
5. CO[C@H]1C[C@@H]2CC[C@@H](C)[C@@](O)(O2)C(=O)C(=O)N2CCCC[C@H]2C(=O)O[C@H]([C@H](C)C[C@@H]2CC[C@@H](O)[C@H](OC)C2)CC(=O)[C@H](C)/C=C(\C)[C@@H](O)[C@@H](OC)C(=O)[C@H](C)C[C@H](C)/C=C/C=C/C=C/1C
6. CC(=O)OCC(=O)[C@@]1(O)[C@H](C)C[C@H]2[C@@H]3CCC4=CC(=O)C=C[C@]4(C)[C@@]3(F)[C@@H](O)C[C@@]21C [DEXAMETHASONE ACETATE]

[4.267, 12.26, 3.897, 19.51, 4.314, 3.803]

====

For each of the molecules below, state its z.
system: SOX2; assay: Screen of a library of FDA-approved drugs for SOX2 antibody staining in A375 cells treated with PLX4720 and AZD6244; details: Z-test against negative controls (DMSO); single dose 5 uM
Answers are plain numbers.

Worked cases, z given:
// fetch z given entry COC(=O)c1ccc2c(c1)NC(=O)/C2=C(\Nc1ccc(N(C)C(=O)CN2CCN(C)CC2)cc1)c1ccccc1 4.28

// fetch z given entry Cc1c(OCC(F)(F)F)ccnc1C[S+]([O-])c1nc2ccccc2[nH]1 (stereo not shown) 3.717

// fetch z given entry CC(=O)c1cc2c(o1)C(=O)c1ccccc1C2=O 6.402

---
// fetch z given entry O=C(CCCCCCC(=O)Nc1ccccc1)NO 13.43

Reference for the values: patent US20200325543A1
